Test system: HOP-92
Assay: NCI tumour cell line growth inhibition, 48 h
The source made the active and inactive calls. Cut-off read from the data, not from the text of the source: active = GI50 up to about 1.1 µM and inactive = higher.
Entries and their measured GI50 follow.

Record request: GI50 value, item `CC(=O)C(CN1C(=O)c2ccccc2C1=O)C(C)=O`
> 100 µM (inactive)

So what's the measured GI50 for this one? `N#Cc1c(N)c2c(c(-c3ccccc3)c1-c1ccccc1)C(=O)N(N)C2=O`
26.9 µM (inactive)

What value of GI50 has been reported for the following compound? `Cc1cc(C)c2c(c1)C(=O)/C(=C/c1ccccc1C(=O)O)C2`
> 100 µM (inactive)

Can you share its GI50? I mean this compound: `N#Cc1sc2nc3ccccc3n2c1N`
> 100 µM (inactive)

Using the record for `COc1cc2c3c([nH]c2c(OC)c1OC)CCN(Cc1ccccc1)C3` , report its GI50.
6.27 µM (inactive)

Request the reported GI50 associated with COc1ccc(/N=N/C(=O)NC(CC(C)C)C(=O)NC(CC(C)C)C(=O)O)cc1 (configuration not stated)
> 100 µM (inactive)

Please look at the following compound next.
I'd like to know its GI50. The compound in question is `C(=N\c1nc2cc3sc(/N=C/c4ccccc4)nc3cc2s1)/c1ccccc1`
> 76.9 µM (inactive)

----------
System: NCI-H522
Assay: NCI tumour cell line growth inhibition, 48 h
The source made the active and inactive calls. No stated cut-off is given here; in the data, active = GI50 up to about 1.1 µM and inactive = higher.
Outcomes you can answer with include only these: Yes for active, No for inactive

# example entries with known answers
What did this assay record as the result for `O=C1c2ccccc2C(=O)c2c(Nc3ccc4c5c(cccc35)C(=O)c3ccccc3-4)cccc21` ?
No

I would be grateful if you could indicate the recorded call for `Cn1c(=O)c2ccc(-c3ccc(Br)cc3)nc2n(C)c1=O` .
No

State the result this test recorded for `C=C(C)[C@@H]1CCc2c(c(C)cc(O)c(=O)c2O)C1` .
Yes

***
Name the outcome recorded for `CS(=O)(=O)c1nc(N)nc2nc[nH]c12` in the assay.
No

Called result for `COc1cc([C@H]2CC(=O)C[C@H](c3cc(OC)c(OC)c(OC)c3)C23C(=O)c2ccccc2C3=O)cc(OC)c1OC`
No

----------
Tested on: LOX IMVI
Assay: NCI tumour cell line growth inhibition, 48 h
Activity calls are given as the source filed them. Cut-off read from the data, not from the text of the source: active = GI50 up to about 1.1 µM and inactive = higher.
GI50 overview

GI50 for `COc1cc2c(Cc3cc(OCc4ccccc4)ccc3N)nccc2c(OC)c1OC` ?
> 10 µM (inactive)

Form field: reported GI50 of `COc1cc2c(cc1OC)C(=O)/C(=C/c1ccc(Cl)cc1)CC2`
> 10 µM (inactive)

Quick one: GI50 of O=C1C2C3C=CC(C2C(=O)N1COP(=O)(O)O)C1C2C(=O)N(COP(=O)(O)O)C(=O)C2C31 (centres undefined) ?
> 43.4 µM (inactive)

Consider the compound shown here: `Cc1ccc2c(c1)-c1nc(N)c(C#N)c(-c3ccccc3)c1CCS2(=O)=O` What is its recorded GI50?
> 100 µM (inactive)

Which measured GI50 value corresponds to C[C@H](C(O)CC(=O)C(C)(C)O)[C@H]1CC[C@@]2(C)[C@@H]3CC[C@H]4C(C)(C)[C@@H](OC5OC(COC6OC(CO)C(O)C(O)C6O)C(O)C(O)C5O)CC[C@]4(C)C3=CC[C@]12C (some centres undefined) ?
> 100 µM (inactive)

---
What measured GI50 goes with `Cc1c2ncccc2c(C)c2c1[nH]c1ccccc12` ?
5.66 µM (inactive)

Suppose we examine the compound CC(=O)O[C@H]1CCC2[C@@H]3CCC4=C(O)c5nocc5C[C@]4(C)C3CC[C@@]21C (some centres undefined) ; what GI50 value has been reported?
> 100 µM (inactive)

Name the reported GI50 value associated with the compound CC12CCC(=O)N1c1cncnc1N2 (centres undefined)
> 10 µM (inactive)

Item under review: `O=c1c2ccc(Cl)cc2oc2c(CNc3ccc(S(=O)(=O)Nc4nccs4)cc3)cccc12` . Reported GI50?
> 100 µM (inactive)
